Quick reference for IC50 among some compounds
# System: 328373-195-R-J1-PDC complex spheroids, viability % test/control;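 also: spheroids exposed to the agents for 7 days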
# EXPERIMENT SUMMARY: Anticancer human tumor 328373-195-R-J1-PDC patient-derived head and neck squamous carcinoma cell line growth inhibition [CLK]
# MEASUREMENT SETUP: curve of first compound; second compound 10 µM

# count of solved cases: 5
COMPOUND | VALUE REPORTED
CC(=O)O[C@H]1C(=O)[C@@]2(C)[C@H]([C@H](OC(=O)c3ccccc3)[C@]3(O)C[C@H](OC(=O)[C@H](O)[C@@H](NC(=O)c4ccccc4)c4ccccc4)C(C)=C1C3(C)C)[C@]1(OC(C)=O)CO[C@@H]1C[C@@H]2O + CNC(=O)c1ccc(Nc2nc(OC3CCCC3)c3c(-c4ccc5nc(C)oc5c4)c[nH]c3n2)c(OC)c1 | < 0.0316 µM
CC1(C)CCC(CN2CCN(c3ccc(C(=O)NS(=O)(=O)c4ccc(NCC5CCOCC5)c([N+](=O)[O-])c4)c(Oc4cnc5[nH]ccc5c4)c3)CC2)=C(c2ccc(Cl)cc2)C1 + CN1CCN(c2cc(C(=O)Nc3cc4cc(-c5cnn(C)c5)ccc4cn3)ccn2)CC1 | < 0.0316 µM
C=CC(=O)N1CCN(c2nc(=O)n(-c3c(C)ccnc3C(C)C)c3nc(-c4c(O)cccc4F)c(F)cc23)C(C)C1 (centres undefined) + CNC(=O)c1ccc(Nc2nc(OC3CCCC3)c3c(-c4ccc5nc(C)oc5c4)c[nH]c3n2)c(OC)c1 | < 0.0316 µM
Cn1ncnc1[C@H]1c2n[nH]c(=O)c3cc(F)cc(c23)N[C@@H]1c1ccc(F)cc1 + CNC(=O)c1ccc(Nc2nc(OC3CCCC3)c3c(-c4ccc5nc(C)oc5c4)c[nH]c3n2)c(OC)c1 | < 0.000316 µM
CC(CO)NC(=O)c1cc(-c2ccc(Cl)cc2)nn(-c2cnn(C)c2)c1=O (centres undefined) + CNC(=O)c1ccc(Nc2nc(OC3CCCC3)c3c(-c4ccc5nc(C)oc5c4)c[nH]c3n2)c(OC)c1 | < 0.0316 µM

**Q:** State its IC50 on 328373-195-R-J1-PDC complex spheroids, viability % test/control: CCc1c2c(nc3ccc(O)cc13)-c1cc3c(c(=O)n1C2)COC(=O)[C@]3(O)CC + CN1CCN(c2cc(C(=O)Nc3cc4cc(-c5cnn(C)c5)ccc4cn3)ccn2)CC1
**A:** < 0.00316 µM

**Q:** Notebook: pull reported IC50 for 328373-195-R-J1-PDC complex spheroids, viability % test/control, entry C#Cc1c(F)ccc2cc(O)cc(-c3ncc4c(N5CC6CCC(C5)N6)nc(OCC56CCCN5CC(F)C6)nc4c3F)c12 (centres undefined) + CN1CCN(c2cc(C(=O)Nc3cc4cc(-c5cnn(C)c5)ccc4cn3)ccn2)CC1
**A:** < 0.0316 µM

**Q:** Which measured IC50 belongs to CC(C)CC(NC(=O)C(Cc1ccccc1)NC(=O)c1cnccn1)B(O)O (centres undefined) + CNC(=O)c1ccc(Nc2nc(OC3CCCC3)c3c(-c4ccc5nc(C)oc5c4)c[nH]c3n2)c(OC)c1 , tested on 328373-195-R-J1-PDC complex spheroids, viability % test/control?;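 also: spheroids exposed to the agents for 7 days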
**A:** < 0.000949 µM

**Q:** # get_value(readout= IC50, system= 328373-195-R-J1-PDC complex spheroids, viability % test/control) for CCN1CCN(Cc2ccc(Nc3ncc(F)c(-c4cc(F)c5nc(C)n(C(C)C)c5c4)n3)nc2)CC1 + CNC(=O)c1ccc(Nc2nc(OC3CCCC3)c3c(-c4ccc5nc(C)oc5c4)c[nH]c3n2)c(OC)c1;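 also: spheroids exposed to the agents for 7 days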
**A:** < 0.00316 µM
